# Test system: Fibroblast
# protocol notes: Incucyte cell viability with human fibroblast; also: filed as whole numbers so only -1 and 0 and 1 occur
# Format: toxicity, cell-based
# assay conditions: 18 h, 10 µM, compound concentration 10 uM, replicate number 1, timepoint 18 hours
readout label: Growth Rate
Answers are plain numbers.

> print(dat)
                                   compound  readout.label  experimental.value
1  Cc1nc(-c2ccc(C(F)(F)F)cc2)sc1COc1ccc([C@H](CC(=O)O)c2ccon2)cc1    Growth Rate                   1
2  CC(C)(C(=O)O)c1ccc(C(O)CCCN2CCC(C(O)(c3ccccc3)c3ccccc3)CC2)cc1.Cl (centres undefined) [FEXOFENADINE HYDROCHLORIDE]    Growth Rate                   0
3  COc1ccc(S(=O)(=O)N(CCO)c2ccccc2CN(C)C/C=C/c2ccc(Cl)cc2)cc1.O=P(O)(O)O    Growth Rate                   0

Shift focus to the following entry.
Find the measured Growth Rate: item Cc1ccc2nc(CNCCCOc3ccccc3)cc(O)c2c1 [UCSF924] , target or system Fibroblast. 0
